- ASSAYED_TARGET: Bromodomain-containing protein 4 (Homo sapiens)
- ASSAY_PROCEDURE: Inhibition of BRD4 bromodomain 2 (unknown origin) by Alphascreen based method
REPORTED_PROPERTY: IC50

Return IC50 measured with Bromodomain-containing protein 4 (Homo sapiens) given this compound: Cc1cc(-c2nc3sc4c(c3c(=O)[nH]2)CCN(C)C4)cc(C)c1OCC(=O)OCc1c(-c2ccccc2)no[n+]1[O-]
1940 nM

---

- ASSAYED_TARGET: Bromodomain-containing protein 2 (Homo sapiens, UniProt P25440)
- Sequence (P25440 whole entry): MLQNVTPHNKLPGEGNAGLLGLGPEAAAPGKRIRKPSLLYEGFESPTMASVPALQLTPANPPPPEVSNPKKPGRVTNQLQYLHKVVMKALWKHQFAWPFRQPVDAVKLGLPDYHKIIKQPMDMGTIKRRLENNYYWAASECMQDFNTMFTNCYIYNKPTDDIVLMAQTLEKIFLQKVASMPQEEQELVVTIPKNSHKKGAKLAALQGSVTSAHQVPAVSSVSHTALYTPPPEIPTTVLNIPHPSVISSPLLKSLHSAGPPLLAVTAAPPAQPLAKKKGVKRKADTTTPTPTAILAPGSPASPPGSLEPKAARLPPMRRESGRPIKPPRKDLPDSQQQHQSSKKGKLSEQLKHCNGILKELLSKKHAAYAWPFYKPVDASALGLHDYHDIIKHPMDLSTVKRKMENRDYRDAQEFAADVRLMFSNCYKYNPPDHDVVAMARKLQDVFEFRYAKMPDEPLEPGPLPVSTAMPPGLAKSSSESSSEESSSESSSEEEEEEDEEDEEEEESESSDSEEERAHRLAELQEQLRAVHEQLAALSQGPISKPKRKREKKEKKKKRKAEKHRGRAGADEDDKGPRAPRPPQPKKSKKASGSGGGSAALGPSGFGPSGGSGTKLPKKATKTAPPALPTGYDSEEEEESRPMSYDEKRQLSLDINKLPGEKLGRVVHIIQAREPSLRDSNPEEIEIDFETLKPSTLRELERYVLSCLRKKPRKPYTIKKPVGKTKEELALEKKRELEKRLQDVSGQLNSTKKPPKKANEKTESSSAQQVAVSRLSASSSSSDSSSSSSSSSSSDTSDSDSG
- ASSAY_PROCEDURE: Inhibition of BRD2 bromodomain 2 (unknown origin) by Alphascreen based method
pIC50: −log10 of the molar value.
REPORTED_PROPERTY: pIC50

Given the entry Cc1cc(-c2nc3sc4c(c3c(=O)[nH]2)CCN(C)C4)cc(C)c1OCC(=O)OCc1c(-c2ccccc2)no[n+]1[O-] , report its measured pIC50.
< 4.70

---

- System: SW626
- ASSAY_PROCEDURE: Antiproliferative activity against human SW626 cells assessed as reduction in cell viability incubated for 24 hrs by CCK8 assay
- Format: functional, cell-based
- CONDITION_INFO: SW626, 24 h
REPORTED_PROPERTY: pIC50
Answers are plain numbers, as −log10 of the molar value.

Reference set (4 entries):
COc1cc(OC)c2c(=O)[nH]c(-c3cc(C)c(OCCO)c(C)c3)nc2c1 [APABETALONE] = 5.07
Cc1cc(-c2nc3sc4c(c3c(=O)[nH]2)CCN(C)C4)cc(C)c1OCCCC(=O)OCc1no[n+]([O-])c1C = 4.87
Cc1cc(-c2nc3sc4c(c3c(=O)[nH]2)CCN(C)C4)cc(C)c1OCC(=O)OCc1no[n+]([O-])c1C = 5.01
Cc1cc(-c2nc3sc4c(c3c(=O)[nH]2)CCN(C)C4)cc(C)c1OCC(=O)OCc1c(-c2ccccc2)no[n+]1[O-] = 5.07

Give pIC50 for each listed item.
1. Cc1cc(-c2nc3sc4c(c3c(=O)[nH]2)CCN(C)C4)cc(C)c1OCCCCCCOC(=O)c1no[n+]([O-])c1C
2. Cc1cc(-c2nc3sc4c(c3c(=O)[nH]2)CCN(C)C4)cc(C)c1OCCCCCC(=O)OCc1c(-c2ccccc2)no[n+]1[O-]
3. Cc1cc(-c2nc3sc4c(c3c(=O)[nH]2)CCN(C)C4)cc(C)c1OCCCCO[N+](=O)[O-]

1. 4.92
2. 4.90
3. 4.78

---

- ASSAYED_TARGET: Bromodomain-containing protein 4 (Homo sapiens)
- ASSAY_PROCEDURE: Binding affinity to BRD4 BD1 (unknown origin) by thermal denaturation assay
REPORTED_PROPERTY: pKd
Numbers only, as −log10 of the molar value.

Given the entry Cc1cc(-c2nc3sc4c(c3c(=O)[nH]2)CCN(C)C4)cc(C)c1OCC(=O)OCc1c(-c2ccccc2)no[n+]1[O-] , report its measured pKd.
6.38

---

- ASSAYED_TARGET: Bromodomain-containing protein 4 (Homo sapiens, UniProt O60885)
- ASSAY_PROCEDURE: Binding affinity to BRD4 BD2 (unknown origin) by thermal denaturation assay
REPORTED_PROPERTY: pKd
One number for each entry, as −log10 of the molar value.

Report pKd for Cc1cc(-c2nc3sc4c(c3c(=O)[nH]2)CCN(C)C4)cc(C)c1OCC(=O)OCc1c(-c2ccccc2)no[n+]1[O-] please.
6.16

---

- ASSAY_PROCEDURE: Induction of NO release in phosphate buffer at 1 hr by Griess reagent based spectrophotometer analysis
- Assay type: functional
Kind request: treat 0.04 µmol/L as inclusive, so Activity at 0.04 µmol/L or higher is T, anything lower is F.

Consider the worked cases shown below.
Cc1cc(-c2nc3sc4c(c3c(=O)[nH]2)CCN(C)C4)cc(C)c1OCCCC(=O)OCc1no[n+]([O-])c1C = F
Cc1cc(-c2nc3sc4c(c3c(=O)[nH]2)CCN(C)C4)cc(C)c1OCCCCO[N+](=O)[O-] = T
Cc1cc(-c2nc3sc4c(c3c(=O)[nH]2)CCN(C)C4)cc(C)c1OCCCCCCOC(=O)c1no[n+]([O-])c1C = F
Cc1cc(-c2nc3sc4c(c3c(=O)[nH]2)CCN(C)C4)cc(C)c1OCCCCCC(=O)OCc1c(-c2ccccc2)no[n+]1[O-] = T
Cc1cc(-c2nc3sc4c(c3c(=O)[nH]2)CCN(C)C4)cc(C)c1OCCCC(=O)OCc1c(-c2ccccc2)no[n+]1[O-] = T
Cc1cc(-c2nc3sc4c(c3c(=O)[nH]2)CCN(C)C4)cc(C)c1OCCCCCCO[N+](=O)[O-] = F
Cc1cc(-c2nc3sc4c(c3c(=O)[nH]2)CCN(C)C4)cc(C)c1OCC(=O)OCc1c(-c2ccccc2)no[n+]1[O-] = T

Let us examine a further case.
Is Activity at least 0.04 µmol/L? Consider Cc1cc(-c2nc3sc4c(c3c(=O)[nH]2)CCN(C)C4)cc(C)c1OCCCCCC(=O)OCc1no[n+]([O-])c1C
F

---

- ASSAYED_TARGET: Bromodomain-containing protein 2 (Homo sapiens)
- ASSAY_PROCEDURE: Binding affinity to BRD2 BD1 (unknown origin) by thermal denaturation assay
REPORTED_PROPERTY: Kd (µM)
Numbers only, in µM.

Report Kd for Cc1cc(-c2nc3sc4c(c3c(=O)[nH]2)CCN(C)C4)cc(C)c1OCC(=O)OCc1c(-c2ccccc2)no[n+]1[O-] tested on Bromodomain-containing protein 2 (Homo sapiens).
7.43

---

- ASSAYED_TARGET: Bromodomain-containing protein 4 (Homo sapiens)
- ASSAY_PROCEDURE: Inhibition of BRD4 (unknown origin)
REPORTED_PROPERTY: pIC50
One number for each entry, as −log10 of the molar value.

Cc1cc(-c2nc3sc4c(c3c(=O)[nH]2)CCN(C)C4)cc(C)c1OCCCCCC(=O)OCc1no[n+]([O-])c1C = 5.71
Cc1cc(-c2nc3sc4c(c3c(=O)[nH]2)CCN(C)C4)cc(C)c1OCCCCCCO[N+](=O)[O-] = 5.65
Cc1cc(-c2nc3sc4c(c3c(=O)[nH]2)CCN(C)C4)cc(C)c1OCCCCO[N+](=O)[O-] = 5.72
Cc1cc(-c2nc3sc4c(c3c(=O)[nH]2)CCN(C)C4)cc(C)c1OCC(=O)OCc1no[n+]([O-])c1C = 5.92
Cc1cc(-c2nc3sc4c(c3c(=O)[nH]2)CCN(C)C4)cc(C)c1OCCCC(=O)OCc1no[n+]([O-])c1C = 5.65
Cc1cc(-c2nc3sc4c(c3c(=O)[nH]2)CCN(C)C4)cc(C)c1OCCCC(=O)OCc1c(-c2ccccc2)no[n+]1[O-] = 5.77
Cc1cc(-c2nc3sc4c(c3c(=O)[nH]2)CCN(C)C4)cc(C)c1OCCCCCC(=O)OCc1c(-c2ccccc2)no[n+]1[O-] = 5.87
Cc1cc(-c2nc3sc4c(c3c(=O)[nH]2)CCN(C)C4)cc(C)c1OCCCCCCOC(=O)c1no[n+]([O-])c1C = 5.63

Here is another compound to look at.
Given the entry Cc1cc(-c2nc3sc4c(c3c(=O)[nH]2)CCN(C)C4)cc(C)c1OCC(=O)OCc1c(-c2ccccc2)no[n+]1[O-] , report its measured pIC50.
6.09

---

- Tested on: OVCAR-3
- ASSAY_PROCEDURE: Antiproliferative activity against human OVCAR-3 cells assessed as reduction in cell viability incubated for 24 hrs by CCK8 assay
- Assay type: functional, cell-based
- CONDITION_INFO: OVCAR-3, 24 h
Answer each item with its documented IC50.
Give bare numbers, in µM.

Look over these answered cases.
Cc1cc(-c2nc3sc4c(c3c(=O)[nH]2)CCN(C)C4)cc(C)c1OCC(=O)OCc1no[n+]([O-])c1C = 3.73
Cc1cc(-c2nc3sc4c(c3c(=O)[nH]2)CCN(C)C4)cc(C)c1OCCCCCC(=O)OCc1no[n+]([O-])c1C = 6.89
Cc1cc(-c2nc3sc4c(c3c(=O)[nH]2)CCN(C)C4)cc(C)c1OCCCCCCO[N+](=O)[O-] = 17.9
Cc1cc(-c2nc3sc4c(c3c(=O)[nH]2)CCN(C)C4)cc(C)c1OCCCCCC(=O)OCc1c(-c2ccccc2)no[n+]1[O-] = 5.42
Cc1cc(-c2nc3sc4c(c3c(=O)[nH]2)CCN(C)C4)cc(C)c1OCCCC(=O)OCc1c(-c2ccccc2)no[n+]1[O-] = 13.8

Quick request: IC50 for each listed item, please.
1. Cc1cc(-c2nc3sc4c(c3c(=O)[nH]2)CCN(C)C4)cc(C)c1OCCCCCCOC(=O)c1no[n+]([O-])c1C
2. COc1cc(OC)c2c(=O)[nH]c(-c3cc(C)c(OCCO)c(C)c3)nc2c1

1: 7.04; 2: 16.9
